Source of measurements: patent US8669246B2

For each entry below, report its IC50 value.
# System Name: human LPA1 (Homo sapiens, UniProt Q92633)
# Construct: expressed in transfected cells
# Sequence (Q92633 whole entry): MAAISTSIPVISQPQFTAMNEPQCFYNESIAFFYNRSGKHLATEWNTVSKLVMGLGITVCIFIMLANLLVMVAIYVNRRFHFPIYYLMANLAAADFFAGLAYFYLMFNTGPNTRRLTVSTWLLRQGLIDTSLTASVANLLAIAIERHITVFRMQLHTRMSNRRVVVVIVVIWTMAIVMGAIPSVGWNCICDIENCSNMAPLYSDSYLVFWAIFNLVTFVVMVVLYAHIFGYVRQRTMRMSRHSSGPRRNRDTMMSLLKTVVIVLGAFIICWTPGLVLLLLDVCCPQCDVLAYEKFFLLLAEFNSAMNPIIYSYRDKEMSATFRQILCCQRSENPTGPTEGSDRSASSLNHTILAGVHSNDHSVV
# Assay Notes: Antagonistic action on human LPA1: inhibition of LPA-stimulated increase in intracellular calcium ion concentration in human LPA1-CHO cells
# Format: cell-based
# Conditions Used: LPA 100 nM, Fluo-4/FLIPR calcium signal
Please state the value followed by its unit.

// input: 3 molecules below; output: IC50 for each
1. COc1cc(C(=O)N(CCCc2ccc(C)o2)Cc2nc(C(=O)NS(N)(=O)=O)cs2)cc(OC)c1C
2. COc1ccc(CC(=O)N(CCCc2ccccc2)Cc2nc(C(=O)NS(=O)(=O)N(C)C)c(C)s2)c(OC)c1
3. COc1cc(OC)cc(C(=O)N(CCCc2ccccc2)Cc2nc(C(=O)NS(C)(=O)=O)c(Cl)s2)c1

Out:
6.6 nM
20 nM
23 nM

// input: 4 molecules below; output: IC50 for each
1. COc1cc(C(=O)N(CCCc2ccccc2)Cc2nc(C(=O)NS(=O)(=O)NC(C)=O)cs2)cc(OC)c1C
2. COc1cc(C(=O)N(CCCc2ccccc2)Cc2nc(C(=O)NS(C)(=O)=O)c(C)s2)cc(OC)c1C
3. COc1cc(C(=O)N(CCCc2ccccc2)Cc2nc(C(=O)NS(=O)(=O)c3cccs3)cs2)cc(OC)c1C
4. Cc1cc(C(=O)N(CCCc2ccccc2)Cc2nc(C(=O)NS(N)(=O)=O)c(Cl)s2)cc(C)c1O

Out:
1. 17 nM
2. 22 nM
3. 7.8 nM
4. 16 nM

---

# System: LPA-induced increase in urethral pressure
# Assay Notes: Inhibitory action on LPA-induced increase in urethral pressure in rats under anesthesia
# Assay type: in vivo, rat (male Wistar)
# Conditions Used: Rattus norvegicus, 5 min; 0.1 mg/kg intravenous, LPA (1-oleoyl) 3 mg/kg iv after 5 minutes, anesthetized rats, vs solvent; read-out: Inhibitory rate
Parameter Measured: inhibition in vivo at 0.1 mg/kg (%)
Numbers only, in %.

>>> quantitative_result("COc1ccc([C@@H](O)C(=O)N(CCCc2ccccc2)Cc2nc(C(=O)NS(C)(=O)=O)c(C)s2)c(F)c1")
42
>>> quantitative_result("COc1cc(C(=O)N(CCCc2ccccc2)Cc2nc(C(=O)NS(N)(=O)=O)cs2)cc(OC)c1C1CC1")
38

// input: 2 molecules below; output: inhibition in vivo at 0.1 mg/kg for each
1. COc1ccc(C2(C(=O)N(CCCc3ccc(C)o3)Cc3nc(C(=O)NS(=O)(=O)N(C)C)c(C)s3)CC2)nc1
2. COc1cc(C(=O)N(CCCc2ccccc2)Cc2nc(C(=O)NS(N)(=O)=O)cs2)cc(OC)c1C

Out:
[31, 33]

---

# System Name: human LPA1 (Homo sapiens, UniProt Q92633)
# Assay Notes: Antagonistic action on human LPA1: inhibition of LPA-stimulated increase in intracellular calcium ion concentration in human LPA1-CHO cells
# Conditions Used: LPA 100 nM, Fluo-4/FLIPR calcium signal
Parameter Measured: pIC50
Answers are plain numbers, as −log10 of the molar value.

Worked set:
>>> quantitative_result("COc1ccc(C(O)C(=O)N(CCCc2ccccc2)Cc2nc(C(=O)NS(N)(=O)=O)c(C)s2)cc1 (stereo not drawn)")
7.62
>>> quantitative_result("COc1cc(C(=O)N(CCCc2cc(F)ccc2F)Cc2nc(C(=O)NS(N)(=O)=O)cs2)cc(OC)c1C")
7.80
>>> quantitative_result("CCNS(=O)(=O)NC(=O)c1csc(CN(CCCc2ccccc2)C(=O)c2cc(OC)c(C)c(OC)c2)n1")
7.80
>>> quantitative_result("COc1cc(C(=O)N(CCCc2ccc(Cl)s2)Cc2nc(C(=O)NS(N)(=O)=O)cs2)cc(OC)c1C")
7.96

// input: 6 compounds below; output: pIC50 for each
1. CCc1c(OC)cc(C(=O)N(CCCc2ccccc2)Cc2nc(C(=O)NS(=O)(=O)NC)c(C)s2)cc1OC
2. COc1cc(C(=O)N(CCCc2ccccc2)Cc2nc(C(=O)NS(=O)(=O)CCO)cs2)cc(OC)c1C
3. COc1cc(C(=O)N(CCCc2ccccc2)Cc2nc(C(=O)NS(=O)(=O)N(CCO)CCF)cs2)cc(OC)c1C
4. COc1ccc([C@@H](O)C(=O)N(CCCc2ccccc2)Cc2nc(C(=O)NS(=O)(=O)N(C)C)c(C)s2)cc1
5. COc1ccc(C2(C(=O)N(CCCc3ccco3)Cc3nc(C(=O)NS(=O)(=O)N(C)C)c(C)s3)CC2)cc1
6. COc1cc(C(=O)N(CCCc2ccccc2)Cc2nc(C(=O)NS(=O)(=O)Nc3ccccn3)cs2)cc(OC)c1C

Out:
[7.68, 7.92, 7.62, 7.48, 7.66, 7.80]

// input: 5 compounds below; output: pIC50 for each
1. COc1cc(C(=O)N(CCCc2ccccc2)Cc2nc(C(=O)NS(C)(=O)=O)cs2)cc(OC)c1C
2. COc1cc(C(=O)N(CCCc2ccccc2)Cc2ccc(C(=O)NS(N)(=O)=O)o2)cc(OC)c1C
3. COc1cc(C(=O)N(CCCc2ccccc2)Cc2nc(C(=O)NS(N)(=O)=O)cs2)cc(OC)c1C
4. CNS(=O)(=O)NC(=O)c1nc(CN(CCCc2ccccc2)C(=O)c2cc(OC)c(C3CC3)c(OC)c2)sc1C
5. COC(=O)N(C)S(=O)(=O)NC(=O)c1csc(CN(CCCc2ccccc2)C(=O)c2cc(OC)c(C)c(OC)c2)n1

Out:
1. 7.96
2. 8.12
3. 8.06
4. 7.82
5. 7.77
